# Tested on: EfPiwi piRISC loaded with L1MC piRNA (26 nt)
# procedure_details: pre-steady-state target cleavage rate (min^-1); auxiliary factor: 500 nM Ephydatia muelleri Gtsf1; guide: L1MC piRNA 5'p-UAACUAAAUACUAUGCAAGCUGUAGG; MIWI and MILI are mouse PIWI proteins and EfPiwi is from a freshwater sponge; tags in brackets are library labels; higher = faster piRNA-guided slicing of the target
Classify by measured pre-steady-state target cleavage rate: 1 if it is equal to or exceeds 0.005, 0 if it is smaller.

INSERT INTO assay_data (sequence_entry, class_name) VALUES
  ('UCCUGGAUGUCGUUGCAAACUAUUUAGUUA', 0),
  ('UCCUGGUACAGCUUGGCAUAGUAUUUAGUUA', 1),
  ('UCCUGGAUCAGCUAGCUUAGUAUUUAGUUA', 1),
  ('UCCUGGAUGUCGUCUGCAUAGUAUUUAGUUA', 1),
  ('UCCUGCUACAGCUAUGCAUAGUAUUUAGUUA', 1),
  ('UCCUGCGUACAGCUUGCAUAGUAUUUAGUUA', 1),
  ('UCCUGCUACAGCUUGCAUAGUAUAAUGUAA', 0),
  ('UCCUGGUACAGCUUGCAUAGUAUAUUGUUA', 0),
  ('UCCUGGAUCAUCUUGCAUAGUAUUUAGUUA', 1),
  ('UCCUGCUACAGCUUGCAUAGUAAAUAGUUA', 1),
  ('UCCUGGAUGUCGAACGAUACAUUUUAGUUA', 0),
  ('UCCUGCUACACCUUGGAUAGUAUUUAGUUA', 1),
  ('UCCUCCUACACCUUGCAUAGUAUUUAGAUA', 0);
